This collection of values is drawn from patent US20020111274A1.

Listed here are compounds together with their documented ABUTH herbicidal rating.
# Test system: ABUTH Velvetleaf
# experimentalProtocol: Preemergence herbicidal evaluation, ABUTH
# Format: in vivo, Abutilon theophrasti, Medic.
# Parameters: scale not given here
# measurementParameters: preemergence, rate 0.032 kg/ha

Known ABUTH herbicidal rating results, listed for orientation:
compound: COC(=O)C(C)Oc1ccc(C)cc1-n1nnc2cc(F)c(-n3c(=O)cc(C(F)(F)F)n(C)c3=O)cc21 (stereo not drawn) [Example 41]
ABUTH herbicidal rating: 4.0

compound: CCc1ccc(-n2nnc3cc(F)c(-n4c(=O)cc(C(F)(F)F)n(C)c4=O)cc32)cc1COC [Example 28]
ABUTH herbicidal rating: 2.0

compound: CCc1ccc(-n2nnc3cc(F)c(-n4c(=O)cc(C(F)(F)F)n(C)c4=O)cc32)cc1 [Example 17]
ABUTH herbicidal rating: 7.0

compound: CC(C)c1ccc(-n2nnc3cc(F)c(-n4c(=O)cc(C(F)(F)F)n(C)c4=O)cc32)cc1 [Example 21]
ABUTH herbicidal rating: 4.5

compound: Cc1ccc(-n2nnc3cc(F)c(-n4c(=O)cc(C(F)(F)F)n(C)c4=O)cc32)cc1C [Example 23]
ABUTH herbicidal rating: 3.0

Enquiry: Can you share its ABUTH herbicidal rating? I mean this compound: COc1ccc(-n2nnc3cc(F)c(-n4c(=O)cc(C(F)(F)F)n(C)c4=O)cc32)cc1 [Example 27]
Return: 6.0

Enquiry: Given the compound CCc1ccccc1-n1nnc2cc(F)c(-n3c(=O)cc(C(F)(F)F)n(C)c3=O)cc21 [Example 25] , what is its reported ABUTH herbicidal rating?
Return: 6.0

Enquiry: Returns the measured ABUTH herbicidal rating for the input compound. Input: Cc1ccccc1-n1nnc2cc(F)c(-n3c(=O)cc(C(F)(F)F)n(C)c3=O)cc21 [Example 20]
Return: 6.5

Enquiry: // ABUTH herbicidal rating lookup, key: COC(=O)COc1ccc(-n2nnc3cc(F)c(-n4c(=O)cc(C(F)(F)F)n(C)c4=O)cc32)c(C)c1 [Example 39]
Return: 5.0

----------
# Tested on: CASOB Sicklepod
# experimentalProtocol: Postemergence herbicidal evaluation, CASOB
# Type: in vivo, Cassia obtusifolia, L.
# Set-up: scale not given here
# measurementParameters: 0.032 kg/ha, postemergence spray, rated about two-three weeks after treatment
Below: a set of entries, each annotated with reported Postemergence herbicidal rating CASOB.
Enter the number alone.

compound: Cc1ccc(-n2nnc3cc(F)c(-n4c(=O)cc(C(F)(F)F)n(C)c4=O)cc32)cc1C
Postemergence herbicidal rating CASOB: 0.0

compound: Cc1ccc(OCC(=O)O)cc1-n1nnc2cc(F)c(-n3c(=O)cc(C(F)(F)F)n(C)c3=O)cc21
Postemergence herbicidal rating CASOB: 0.0

compound: CCc1ccc(-n2nnc3cc(F)c(-n4c(=O)cc(C(F)(F)F)n(C)c4=O)cc32)cc1
Postemergence herbicidal rating CASOB: 5.0

compound: CCc1ccc(-n2nnc3cc(F)c(-n4c(=O)cc(C(F)(F)F)n(C)c4=O)cc32)cc1COC
Postemergence herbicidal rating CASOB: 1.0

compound: COC(=O)COc1ccc(C)c(-n2nnc3cc(F)c(-n4c(=O)cc(C(F)(F)F)n(C)c4=O)cc32)c1
Postemergence herbicidal rating CASOB: 0.0

Enquiry: Item "COc1ccc(-n2nnc3cc(F)c(-n4c(=O)cc(C(F)(F)F)n(C)c4=O)cc32)cc1" with CASOB Sicklepod - Postemergence herbicidal rating CASOB?
Return: 6.0

Enquiry: Which Postemergence herbicidal rating CASOB is reported with CASOB Sicklepod for this entry: "C=CCOc1ccc(-n2nnc3cc(F)c(-n4c(=O)cc(C(F)(F)F)n(C)c4=O)cc32)c(C)c1" ?
Return: 0.0
